System Tested: T1, human TGFβ3 (human, UniProt P10600 301-412)
T1 sequence: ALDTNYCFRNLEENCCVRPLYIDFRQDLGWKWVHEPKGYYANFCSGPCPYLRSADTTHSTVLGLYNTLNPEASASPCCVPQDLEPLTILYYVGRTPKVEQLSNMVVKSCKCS
Procedure Text: Biacore off-rate vs wt GC1008, 50 nM

Binder	kd var/kd wt
S31W (antibody, V domains shown, GC1008 IgG4 variant) VH: QVQLVQSGAEVKKPGSSVKVSCKASGYTFSWNVISWVRQAPGQGLEWMGGVIPIVDIANYAQRFKGRVTITADESTSTTYMELSSLRSEDTAVYYCASTLGLVLDAMDYWGQGTLVTVSS VL: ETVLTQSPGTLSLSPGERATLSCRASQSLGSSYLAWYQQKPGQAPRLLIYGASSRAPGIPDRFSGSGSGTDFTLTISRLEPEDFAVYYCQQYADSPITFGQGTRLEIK	1.6
S31G (antibody, V domains shown, GC1008 IgG4 variant) VH: QVQLVQSGAEVKKPGSSVKVSCKASGYTFSGNVISWVRQAPGQGLEWMGGVIPIVDIANYAQRFKGRVTITADESTSTTYMELSSLRSEDTAVYYCASTLGLVLDAMDYWGQGTLVTVSS VL: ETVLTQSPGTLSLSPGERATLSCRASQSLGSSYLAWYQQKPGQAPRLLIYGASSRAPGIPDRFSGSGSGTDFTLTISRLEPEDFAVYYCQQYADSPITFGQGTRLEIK	1.1
Y27P (antibody, V domains shown, GC1008 IgG4 variant) VH: QVQLVQSGAEVKKPGSSVKVSCKASGPTFSSNVISWVRQAPGQGLEWMGGVIPIVDIANYAQRFKGRVTITADESTSTTYMELSSLRSEDTAVYYCASTLGLVLDAMDYWGQGTLVTVSS VL: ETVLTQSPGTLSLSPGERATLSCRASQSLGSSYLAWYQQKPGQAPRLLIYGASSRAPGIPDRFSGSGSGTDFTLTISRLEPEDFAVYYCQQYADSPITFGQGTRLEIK	1.4
N32V (antibody, V domains shown, GC1008 IgG4 variant) VH: QVQLVQSGAEVKKPGSSVKVSCKASGYTFSSVVISWVRQAPGQGLEWMGGVIPIVDIANYAQRFKGRVTITADESTSTTYMELSSLRSEDTAVYYCASTLGLVLDAMDYWGQGTLVTVSS VL: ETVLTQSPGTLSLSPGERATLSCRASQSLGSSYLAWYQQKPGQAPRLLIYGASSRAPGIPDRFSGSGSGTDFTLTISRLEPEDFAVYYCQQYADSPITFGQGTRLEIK	1.4
